# assay_comment: molar heat capacity at constant pressure
# assay_context: 318.15 K; 101.33 kPa; Liquid; Small sample (50 mg) DSC
measured_parameter: molar heat capacity at constant pressure (J/K/mol)

[
  {
    "compound": "CCCCCCCCCC(=O)[O-].CCCCCCCCCCCCCC[P+](CCCCCC)(CCCCCC)CCCCCC [trihexyltetradecylphosphonium decanoate]",
    "measured_parameter": "molar heat capacity at constant pressure",
    "result_units": "J/K/mol",
    "observed_value": 1221.8
  },
  {
    "compound": "CC(=O)[O-].CCCCCCCCCCCCCC[P+](CCCCCC)(CCCCCC)CCCCCC [trihexyl(tetradecyl)phosphonium acetate]",
    "measured_parameter": "molar heat capacity at constant pressure",
    "result_units": "J/K/mol",
    "observed_value": 1116.7
  },
  {
    "compound": "CCCCCCCC(=O)[O-].CCCCCCCCCCCCCC[P+](CCCCCC)(CCCCCC)CCCCCC [trihexyl(tetradecyl)phosphonium octanoate]",
    "measured_parameter": "molar heat capacity at constant pressure",
    "result_units": "J/K/mol",
    "observed_value": 1185.8
  },
  {
    "compound": "CCCC(=O)[O-].CCCCCCCCCCCCCC[P+](CCCCCC)(CCCCCC)CCCCCC [trihexyl(tetradecyl)phosphonium butyrate]",
    "measured_parameter": "molar heat capacity at constant pressure",
    "result_units": "J/K/mol",
    "observed_value": 1136.2
  },
  {
    "compound": "CCCCCC(=O)[O-].CCCCCCCCCCCCCC[P+](CCCCCC)(CCCCCC)CCCCCC [trihexyl(tetradecyl)phosphonium hexanoate]",
    "measured_parameter": "molar heat capacity at constant pressure",
    "result_units": "J/K/mol",
    "observed_value": 1169.3
  }
]

---

Reported viscosity values are given for each entry in this list.
# assay_context: 323.2 K; 101.33 kPa; Liquid; Cone and plate viscometry
± gives the expanded uncertainty stated by the source.

[
  {
    "compound": "CCCCCCCC(=O)[O-].CCCCCCCCCCCCCC[P+](CCCCCC)(CCCCCC)CCCCCC [trihexyl(tetradecyl)phosphonium octanoate]",
    "viscosity": "113 ± 7.2 mPa·s"
  },
  {
    "compound": "CCCCCC(=O)[O-].CCCCCCCCCCCCCC[P+](CCCCCC)(CCCCCC)CCCCCC [trihexyl(tetradecyl)phosphonium hexanoate]",
    "viscosity": "99.18 ± 6.2 mPa·s"
  },
  {
    "compound": "CCCCCCCCCC(=O)[O-].CCCCCCCCCCCCCC[P+](CCCCCC)(CCCCCC)CCCCCC [trihexyltetradecylphosphonium decanoate]",
    "viscosity": "121.8 ± 7.7 mPa·s"
  },
  {
    "compound": "CC(=O)[O-].CCCCCCCCCCCCCC[P+](CCCCCC)(CCCCCC)CCCCCC [trihexyl(tetradecyl)phosphonium acetate]",
    "viscosity": "59.32 ± 3.6 mPa·s"
  },
  {
    "compound": "CCCC(=O)[O-].CCCCCCCCCCCCCC[P+](CCCCCC)(CCCCCC)CCCCCC [trihexyl(tetradecyl)phosphonium butyrate]",
    "viscosity": "74.08 ± 4.6 mPa·s"
  }
]

---

The following molecules are shown together with reported viscosity values.
# assay_context: 363.2 K; 101.33 kPa; Liquid; Cone and plate viscometry
measured_parameter: viscosity (mPa·s)

[
  {
    "molecule": "CCCCCCCC(=O)[O-].CCCCCCCCCCCCCC[P+](CCCCCC)(CCCCCC)CCCCCC [trihexyl(tetradecyl)phosphonium octanoate]",
    "observed_value": 28.12
  },
  {
    "molecule": "CCCC(=O)[O-].CCCCCCCCCCCCCC[P+](CCCCCC)(CCCCCC)CCCCCC [trihexyl(tetradecyl)phosphonium butyrate]",
    "observed_value": 18.76
  },
  {
    "molecule": "CC(=O)[O-].CCCCCCCCCCCCCC[P+](CCCCCC)(CCCCCC)CCCCCC [trihexyl(tetradecyl)phosphonium acetate]",
    "observed_value": 15.71
  },
  {
    "molecule": "CCCCCC(=O)[O-].CCCCCCCCCCCCCC[P+](CCCCCC)(CCCCCC)CCCCCC [trihexyl(tetradecyl)phosphonium hexanoate]",
    "observed_value": 25.05
  },
  {
    "molecule": "CCCCCCCCCC(=O)[O-].CCCCCCCCCCCCCC[P+](CCCCCC)(CCCCCC)CCCCCC [trihexyltetradecylphosphonium decanoate]",
    "observed_value": 31.71
  }
]

---

# assay_comment: molar heat capacity at constant pressure
# assay_context: 323.15 K; 101.33 kPa; Liquid; Small sample (50 mg) DSC

[
  {
    "compound": "CCCCCC(=O)[O-].CCCCCCCCCCCCCC[P+](CCCCCC)(CCCCCC)CCCCCC [trihexyl(tetradecyl)phosphonium hexanoate]",
    "molar heat capacity at constant pressure [J/K/mol]": 1176.4
  },
  {
    "compound": "CCCC(=O)[O-].CCCCCCCCCCCCCC[P+](CCCCCC)(CCCCCC)CCCCCC [trihexyl(tetradecyl)phosphonium butyrate]",
    "molar heat capacity at constant pressure [J/K/mol]": 1142.5
  },
  {
    "compound": "CCCCCCCC(=O)[O-].CCCCCCCCCCCCCC[P+](CCCCCC)(CCCCCC)CCCCCC [trihexyl(tetradecyl)phosphonium octanoate]",
    "molar heat capacity at constant pressure [J/K/mol]": 1192.7
  },
  {
    "compound": "CC(=O)[O-].CCCCCCCCCCCCCC[P+](CCCCCC)(CCCCCC)CCCCCC [trihexyl(tetradecyl)phosphonium acetate]",
    "molar heat capacity at constant pressure [J/K/mol]": 1122.7
  },
  {
    "compound": "CCCCCCCCCC(=O)[O-].CCCCCCCCCCCCCC[P+](CCCCCC)(CCCCCC)CCCCCC [trihexyltetradecylphosphonium decanoate]",
    "molar heat capacity at constant pressure [J/K/mol]": 1230.3
  }
]

---

Measured molar heat capacity at constant pressure, listed per entry for reference.
# assay_comment: molar heat capacity at constant pressure
# assay_context: 313.15 K; 101.33 kPa; Liquid; Small sample (50 mg) DSC

[
  {
    "compound": "CCCCCCCC(=O)[O-].CCCCCCCCCCCCCC[P+](CCCCCC)(CCCCCC)CCCCCC [trihexyl(tetradecyl)phosphonium octanoate]",
    "molar heat capacity at constant pressure, J/K/mol": 1178.9
  },
  {
    "compound": "CCCCCCCCCC(=O)[O-].CCCCCCCCCCCCCC[P+](CCCCCC)(CCCCCC)CCCCCC [trihexyltetradecylphosphonium decanoate]",
    "molar heat capacity at constant pressure, J/K/mol": 1217.2
  },
  {
    "compound": "CC(=O)[O-].CCCCCCCCCCCCCC[P+](CCCCCC)(CCCCCC)CCCCCC [trihexyl(tetradecyl)phosphonium acetate]",
    "molar heat capacity at constant pressure, J/K/mol": 1111.3
  },
  {
    "compound": "CCCC(=O)[O-].CCCCCCCCCCCCCC[P+](CCCCCC)(CCCCCC)CCCCCC [trihexyl(tetradecyl)phosphonium butyrate]",
    "molar heat capacity at constant pressure, J/K/mol": 1129.9
  },
  {
    "compound": "CCCCCC(=O)[O-].CCCCCCCCCCCCCC[P+](CCCCCC)(CCCCCC)CCCCCC [trihexyl(tetradecyl)phosphonium hexanoate]",
    "molar heat capacity at constant pressure, J/K/mol": 1163.9
  }
]

---

# assay_context: 303.2 K; 101.33 kPa; Liquid; Cone and plate viscometry
± gives the expanded uncertainty stated by the source.
Measured viscosity, listed per entry for reference.
measured_parameter: viscosity

[
  {
    "molecule": "CCCCCC(=O)[O-].CCCCCCCCCCCCCC[P+](CCCCCC)(CCCCCC)CCCCCC [trihexyl(tetradecyl)phosphonium hexanoate]",
    "observed_value": "260.7 ± 18 mPa·s"
  },
  {
    "molecule": "CCCCCCCC(=O)[O-].CCCCCCCCCCCCCC[P+](CCCCCC)(CCCCCC)CCCCCC [trihexyl(tetradecyl)phosphonium octanoate]",
    "observed_value": "301.2 ± 21 mPa·s"
  },
  {
    "molecule": "CCCCCCCCCC(=O)[O-].CCCCCCCCCCCCCC[P+](CCCCCC)(CCCCCC)CCCCCC [trihexyltetradecylphosphonium decanoate]",
    "observed_value": "314.5 ± 22 mPa·s"
  },
  {
    "molecule": "CC(=O)[O-].CCCCCCCCCCCCCC[P+](CCCCCC)(CCCCCC)CCCCCC [trihexyl(tetradecyl)phosphonium acetate]",
    "observed_value": "151.2 ± 9.8 mPa·s"
  },
  {
    "molecule": "CCCC(=O)[O-].CCCCCCCCCCCCCC[P+](CCCCCC)(CCCCCC)CCCCCC [trihexyl(tetradecyl)phosphonium butyrate]",
    "observed_value": "190.2 ± 13 mPa·s"
  }
]
